Test system: CAKI-1 renal
PROTOCOL TEXT: NCI tumour cell line growth inhibition, 48 h
MEASURED QUANTITY: TGI

- COMPOUND: "O=C(CCN1CCCC1)Nc1ccc2c(NCc3ccccc3)c3ccccc3nc2c1"
  RESULT: "6.18 µM"
- COMPOUND: "Cc1ccc2nc3ccccc3c(NCc3ccc(Cl)cc3)c2c1"
  RESULT: "11 µM"
- COMPOUND: "Cc1cn2c(/C=C3/C(=O)Nc4c3ccc3ccccc43)c(C(F)(F)F)nc2s1"
  RESULT: "> 100 µM"
- COMPOUND: "Oc1c(C(Nc2ccccc2Br)c2ccccc2)ccc2cccnc12 (configuration not stated)"
  RESULT: "54.3 µM"
- COMPOUND: "CN(C)C(=O)Nc1nc2cc(Cl)c(Cl)cc2[nH]1"
  RESULT: "> 23.5 µM"
- COMPOUND: "c1nc(NCCc2cnc[nH]2)c2[nH]cnc2n1"
  RESULT: "> 100 µM"
- COMPOUND: "COc1cc2c3c(n(CCCN)c(=O)c2cc1OC)-c1ccc([N+](=O)[O-])cc1C3=O"
  RESULT: "19.4 µM"
- COMPOUND: "Cc1c(C(=O)C/C(=N/NC(=O)c2ccccc2)C(=O)Nc2ccc(Cl)cc2)[n+](=O)c2ccccc2n1[O-]"
  RESULT: "> 100 µM"
- COMPOUND: "CCOC(=O)c1ccc(Nc2nc3ccccc3nc2-c2cccs2)cc1"
  RESULT: "> 100 µM"
- COMPOUND: "CN1/C(=C/C=C/C=C/C=C2C(=O)c3ccccc3C2=O)C(C)(C)c2ccccc21"
  RESULT: "> 100 µM"
- COMPOUND: "COC(C)(C)[C@@H](O)[C@H](O)C[C@H](C)C1=C2CC[C@@H]3[C@@]4(C)CC[C@@H](OC(C)=O)C(C)(C)[C@@H]4C[C@@H](OC4OC(COC(C)=O)C(O)C(O)C4O)[C@@]3(C)[C@]2(C)CC1 (some centres not stated)"
  RESULT: "14.8 µM"
- COMPOUND: "COc1ccccc1-n1c(=O)n(C)c(=O)n1C(C)(C)C"
  RESULT: "> 100 µM"
- COMPOUND: "O=C(NCCN1CCOCC1)OCc1nc2nc(Cl)nc(N3CCOCC3)c2[nH]1"
  RESULT: "> 100 µM"
- COMPOUND: "O=[N+]([O-])c1cccc(/C=N/NC2=CS(=O)(=O)C=C2)c1"
  RESULT: "> 100 µM"
- COMPOUND: "CSC(SC)=C(C#N)C(=O)Nc1cccc(Cl)c1"
  RESULT: "> 100 µM"
- COMPOUND: "Cc1cn(C2CCC(CO)(CF)O2)c(=O)[nH]c1=O (configuration not stated)"
  RESULT: "> 100 µM"
- COMPOUND: "Cn1nc2ccc(Nc3cc(=O)[nH]c4ccc5nn(C)nc5c34)cc2n1"
  RESULT: "> 100 µM"
- COMPOUND: "CNc1nnc(CCCCCCCCc2nnc(NC)o2)o1"
  RESULT: "31.3 µM"
- COMPOUND: "CCCCNNC(=O)c1ccc(Br)cc1"
  RESULT: "> 27 µM"
- COMPOUND: "O=S(=O)(O)O"
  RESULT: "1870 µM"
- COMPOUND: "Cc1cc(C)c2c(c1)CC1(Cc3cc(C)c(C)cc3C1=O)C2=O (configuration not stated)"
  RESULT: "> 100 µM"
- COMPOUND: "ClC(Cl)(Cl)C1CCOC1n1nnc2ccccc21 (configuration not stated)"
  RESULT: "> 100 µM"

Values from PubChem BioAssay (NCI)
